test system: A549; experiment: Cytotoxicity against human A549 cells by SRB assay; format: functional, cell-based
Catalogue of pIC50 values
API: returns pIC50 as number; meaning -log10 of concentration in mol/L.

Would you please look over these solved cases?
| query smiles | test target | pIC50 |
| --- | --- | --- |
| CC(C)=CC(=O)NC1=CC(=O)[C@]2(C)[C@@H]3O[C@@H]3[C@H](C)N12 | A549 | 3.54 |
| COc1cccc2c1C(=O)c1c(O)c3c(c(O)c1C2=O)C[C@@](O)(C(=O)CO)C[C@@H]3O[C@H]1C[C@H](N)[C@H](O)[C@H](C)O1 | A549 | 5.85 |

Lab note: next molecule to report on.
[in] Look up pIC50: CC(C)=CC(=O)NC1=C(CC2=C(NC(=O)C=C(C)C)N3[C@@H](C)[C@H]4O[C@H]4[C@@]3(C)C2=O)C(=O)[C@]2(C)[C@@H]3O[C@@H]3[C@H](C)N12
[out] 4.41
